Entries and their measured viability, T/C follow.
# Test system: HOP-62 multicell spheroids with HUVEC/MSC, viability
# assay explanation: Anticancer human tumor HOP-62 cell line growth inhibition [KRAS2];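 further: viability read after a week of compound exposure; 100% = DMSO vehicle-treated spheroids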
# condition summary: second compound 0.316 µM; first compound 0.00316 µM; stronger effect = lower value

- compound: "CCN1CCN(Cc2ccc(Nc3ncc(F)c(-c4cc(F)c5nc(C)n(C(C)C)c5c4)n3)nc2)CC1 + CC1OCC2(CCN(c3cnc(Sc4ccnc(N)c4Cl)c(N)n3)CC2)C1N"
  viability, T/C [%]: 96.8
- compound: "Cn1ncnc1[C@H]1c2n[nH]c(=O)c3cc(F)cc(c23)N[C@@H]1c1ccc(F)cc1 + C=CC(=O)N1CCN(c2nc(=O)n(-c3c(C)ccnc3C(C)C)c3nc(-c4c(O)cccc4F)c(F)cc23)C(C)C1"
  viability, T/C [%]: 53
- compound: "Cn1ncnc1[C@H]1c2n[nH]c(=O)c3cc(F)cc(c23)N[C@@H]1c1ccc(F)cc1 + CC1OCC2(CCN(c3cnc(Sc4ccnc(N)c4Cl)c(N)n3)CC2)C1N"
  viability, T/C [%]: 62.7
- compound: "CC(C)n1nc(-c2ccc3oc(N)nc3c2)c2c(N)ncnc21 + COc1cc2nc(C)nc(NC(C)c3cc(N)cc(C(F)(F)F)c3)c2cc1OC1CCOC1"
  viability, T/C [%]: 46
- compound: "CC(=O)Nc1cccc(-n2c(=O)n(C3CC3)c(=O)c3c(Nc4ccc(I)cc4F)n(C)c(=O)c(C)c32)c1 + COc1cc2nc(C)nc(NC(C)c3cc(N)cc(C(F)(F)F)c3)c2cc1OC1CCOC1"
  viability, T/C [%]: 49.2
